Please provide measured L929 ND50 for the entries that follow.
Target desc: mouse TNFR1 on L929 cells (mouse) (UniProt P25118)
Sequence (P25118 30-454): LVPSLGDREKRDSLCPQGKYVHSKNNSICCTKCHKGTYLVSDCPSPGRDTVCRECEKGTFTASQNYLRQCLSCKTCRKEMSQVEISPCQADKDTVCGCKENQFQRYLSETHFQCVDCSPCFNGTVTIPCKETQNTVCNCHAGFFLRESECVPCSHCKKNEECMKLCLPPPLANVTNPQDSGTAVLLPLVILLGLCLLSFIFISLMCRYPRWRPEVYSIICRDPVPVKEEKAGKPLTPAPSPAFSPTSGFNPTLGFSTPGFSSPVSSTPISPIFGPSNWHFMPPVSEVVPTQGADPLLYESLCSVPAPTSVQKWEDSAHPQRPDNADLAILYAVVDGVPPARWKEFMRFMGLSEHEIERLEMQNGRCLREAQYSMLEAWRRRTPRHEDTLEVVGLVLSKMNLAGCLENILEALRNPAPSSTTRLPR
Test details: cell-based or functional assay
One number for each entry, in nM.

Binder	Reported result
DMS0134 (bispecific antibody) EVQLLESGGGLVQPGGSLRLSCAASGFTFFKYSMGWVRQAPGKGLEWVSQISDTADRTYYAHSVKGRFTISRDNSKNTLYLQMNSLRAEDTAVYYCAIYTGRWVPFEYWGQGTLVTVSSASTDIQMTQSPSSLSASVGDRVTITCRASRPIGTTLSWYQQKPGKAPKLLILWNSRLQSGVPSRFSGSGSGTDFTLTISSLQPEDFATYYCAQAGTHPTTFGQGTKVEIKR	6.52
DMS0133 (bispecific antibody) EVQLLESGGGLVQPGGSLRLSCAASGFTFFKYSMGWVRQAPGKGLEWVSQISDTADRTYYAHSVKGRFTISRDNSKNTLYLQMNSLRAEDTAVYYCAIYTGRWAPFEYWGQGTLVTVSSASTDIQMTQSPSSLSASVGDRVTITCRASRPIGTTLSWYQQKPGKAPKLLILWNSRLQSGVPSRFSGSGSGTDFTLTISSLQPEDFATYYCAQAGTHPTTFGQGTKVEIKR	4.2
DMS0132 (bispecific antibody) EVQLLESGGGLVQPGGSLRLSCAASGFTFVKYSMGWVRQAPGKGLEWVSQISDTADRTYYAHSVKGRFTISRDNSKNTLYLQMNSLRAEDTAVYYCAIYTGRWVPFEYWGQGTLVTVSSASTDIQMTQSPSSLSASVGDRVTITCRASRPIGTTLSWYQQKPGKAPKLLILWNSRLQSGVPSRFSGSGSGTDFTLTISSLQPEDFATYYCAQAGTHPTTFGQGTKVEIKR	6.8

Note: attention shifts to another entry.
q: Give the measured L929 ND50 for DMS0135 (bispecific antibody) EVQLLESGGGLVQPGGSLRLSCAASGFTFFKYSMGWVRQAPGKGLEWVSQISDTADRTYYSHSVKGRFTISRDNSKNTLYLQMNSLRAEDTAVYYCAIYTGRWVPFEYWGQGTLVTVSSASTDIQMTQSPSSLSASVGDRVTITCRASRPIGTTLSWYQQKPGKAPKLLILWNSRLQSGVPSRFSGSGSGTDFTLTISSLQPEDFATYYCAQAGTHPTTFGQGTKVEIKR
a: 5.9
